Source of measurements: the supplement of paper PMC7877785

assay: self-splicing fitness, log relative to wild type (ln ratio); higher = more splicing; Tetrahymena group I intron in knt gene, E. coli kanamycin selection, DiMSum; sequences stand for … in CUCUCU…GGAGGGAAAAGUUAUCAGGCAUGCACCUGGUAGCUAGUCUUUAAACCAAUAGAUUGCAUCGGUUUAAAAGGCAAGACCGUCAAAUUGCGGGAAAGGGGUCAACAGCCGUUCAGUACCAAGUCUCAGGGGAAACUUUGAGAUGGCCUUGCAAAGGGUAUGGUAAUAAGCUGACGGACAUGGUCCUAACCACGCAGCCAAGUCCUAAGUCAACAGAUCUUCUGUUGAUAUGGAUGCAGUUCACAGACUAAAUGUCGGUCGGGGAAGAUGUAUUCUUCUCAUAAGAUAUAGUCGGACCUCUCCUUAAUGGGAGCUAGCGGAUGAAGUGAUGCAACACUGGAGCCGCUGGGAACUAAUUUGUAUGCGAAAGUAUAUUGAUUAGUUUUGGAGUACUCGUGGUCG; settings: 30 °C;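 also: selection with 25 µg/mL kanamycin versus none on LB agar overnight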
Entries and their measured self-splicing fitness (ln) follow.
I only need the number, thanks.

Use these answered entries as a reference point.
• CCGCAGCAAUAUUACGCCCC = -3.29
• ACGCAGCAAUAUUACGACCA = -1.49
• UUAAAGCAAUAUUACGGUGU = -2.73
• GGGAAGCAAUAUUACGUUUC = -3.58
• AAGUAGCAAUAUUACGCCGU = -1.94

Prompt: What value of self-splicing fitness (ln) has been reported for the following sequence? "CCUAAGCAAUAUUACGAACA"
Completion: -3.01

Prompt: Here is the next sequence: "UACCAGCAAUAUUACGUCUU"
Completion: -1.99

Prompt: Here is the next sequence: "GUUUAGCAAUAUUACGUUAG"
Completion: -2.24

Prompt: Here is the next sequence: "AAACAGCAAUAUUACGUAGA"
Completion: -2.31

Prompt: Here is the next sequence: "UCGGAGCAAUAUUACGUACC"
Completion: -2.84

Prompt: Here is the next sequence: "GGGGAGCAAUAUUACGAUAU"
Completion: -2.95

Prompt: Here is the next sequence: "GGAGAGCAAUAUUACGGCAC"
Completion: -1.39

---

assay: self-splicing fitness, log relative to wild type (ln ratio); higher = more splicing; Tetrahymena group I intron in knt gene, E. coli kanamycin selection, DiMSum; sequences stand for … in CUCUCU…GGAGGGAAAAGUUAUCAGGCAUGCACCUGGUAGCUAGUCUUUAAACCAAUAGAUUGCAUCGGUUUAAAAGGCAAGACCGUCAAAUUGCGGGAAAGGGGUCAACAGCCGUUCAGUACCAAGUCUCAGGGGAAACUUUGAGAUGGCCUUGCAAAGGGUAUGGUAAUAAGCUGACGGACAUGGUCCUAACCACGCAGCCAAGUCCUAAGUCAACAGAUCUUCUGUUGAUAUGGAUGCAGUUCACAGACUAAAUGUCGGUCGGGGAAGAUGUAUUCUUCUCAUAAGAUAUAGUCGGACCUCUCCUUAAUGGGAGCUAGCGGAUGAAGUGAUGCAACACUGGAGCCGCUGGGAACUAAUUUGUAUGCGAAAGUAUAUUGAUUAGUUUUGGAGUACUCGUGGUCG; conditions: 37 °C
metric: self-splicing fitness (ln)
I only need the number, thanks.

- GGCUAGCAAUAUUACGGAGC: -2.25
- GCUGAGCAAUAUUACGGUCA: -2.2
- GCAAAGCAAUAUUACGUGAA: -0.0746
- GGGUAGCAAUAUUACGCCAA: -0.0896

Prompt: What value of self-splicing fitness (ln) has been reported for the following sequence? "GAUAAGCAAUAUUACGUUUA"
Completion: -0.982

Prompt: Here is the next sequence: "UCAUAGCAAUAUUACGCGCC"
Completion: -1.88

Prompt: Here is the next sequence: "UUCGAGCAAUAUUACGCCGA"
Completion: -2.66

Prompt: Here is the next sequence: "GAAUAGCAAUAUUACGCAAU"
Completion: -0.898

Prompt: Here is the next sequence: "CUCAAGCAAUAUUACGAAGA"
Completion: -2.55

Prompt: Here is the next sequence: "GAUUAGCAAUAUUACGAGGC"
Completion: -1.02
